# assayRemarks: AUC (0 to 72 hrs) in Sprague-Dawley rat at 20 mg/kg, iv by LC-MS/MS analysis
# Format: ADME, organism-based
# Design: time < 72 hr, route intravenous, dose 20 mg/kg
# setupConditions: in vivo
recordedEndpoint: AUC(0-t) at 72 h (ng·h/mL)

cpdSmiles: NC(=O)[C@@H]1CCCN1C(=O)c1ccc(NC(=O)Nc2ccc(-c3nc(N4CCOCC4)nc(N4CCOCC4)n3)cc2)cc1
recordedEndpoint: AUC(0-t) at 72 h
reportedValue: 30000
//
cpdSmiles: CN(C)C1CCN(C(=O)c2ccc(NC(=O)Nc3ccc(-c4nc(N5CCOCC5)nc(N5CCOCC5)n4)cc3)cc2)CC1
recordedEndpoint: AUC(0-t) at 72 h
reportedValue: 41800
